# target of assay: T1, Sim3-His, bacterially purified recombinant Sim3 protein (S. pombe, UniProt Q9USQ4 1-396)
# T1 sequence (looked up): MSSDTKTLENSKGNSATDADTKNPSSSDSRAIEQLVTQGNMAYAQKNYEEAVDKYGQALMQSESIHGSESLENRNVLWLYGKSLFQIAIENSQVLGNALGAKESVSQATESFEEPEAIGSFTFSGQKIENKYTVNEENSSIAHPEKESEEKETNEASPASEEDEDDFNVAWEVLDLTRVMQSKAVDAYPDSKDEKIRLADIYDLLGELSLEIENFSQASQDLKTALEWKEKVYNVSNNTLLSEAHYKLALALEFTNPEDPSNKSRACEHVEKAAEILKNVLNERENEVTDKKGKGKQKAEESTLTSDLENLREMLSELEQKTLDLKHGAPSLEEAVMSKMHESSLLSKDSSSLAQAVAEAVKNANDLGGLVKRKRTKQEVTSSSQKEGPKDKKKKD
# test name: ITC
Ends that are not written are not given here.
reported property: pKd
Give bare numbers, as −log10 of the molar value.

[Q] Input MAKKSLMAEAGDAIARARKK (peptide, UniProt Q9Y812 1-20, looked up, also: biotinylated, position not given here) [SpCENP-A NTD 4PA peptide (quadruple P-to-A mutations of the GRANT prolines), biotinylated] , output reported pKd.
[A] 5.35
